Origin of values: patent US20200339680A1

Please provide measured MFI for the entries that follow.
assayed_system: T1, human TMEM106B (human, UniProt Q9NUM4 2-274)
T1 construct: full-length, transiently expressed on HEK293 cells, or natively expressed on HeLa, U251 and A549 cells (the cell is named under assay); also the source of the Pepscan peptides; also called huTMEM106B; huTMEM
procedure_details: FACS A549;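 note: flow cytometry of cells incubated on ice for 1 h with hybridoma supernatant or purified antibody at 10 µg/mL, dead propidium iodide-positive cells gated out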
Write down the numeric answer in MFI and omit the unit.

For the binder shown here, TM-15 (antibody, V domains shown, mouse IgG (hybridoma)) VH: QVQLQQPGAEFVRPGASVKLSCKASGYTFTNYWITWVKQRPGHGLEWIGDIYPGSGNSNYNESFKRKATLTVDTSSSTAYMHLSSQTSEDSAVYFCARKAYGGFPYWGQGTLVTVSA VL: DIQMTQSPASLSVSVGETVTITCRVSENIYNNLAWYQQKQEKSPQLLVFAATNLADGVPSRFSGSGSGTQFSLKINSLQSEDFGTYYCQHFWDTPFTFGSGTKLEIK , give the reported MFI. 938

Please give the result for TM-33 (antibody, V domains shown, mouse IgG (hybridoma)) VH: EFQLQQSGPELVKPGASVKISCKASGYSFTDYNMNWVKQSNGKSLEWIGVINPNYGTTSYNQKFKGKATLTVDQSSSTAYMQLNSLTSEDSAVYYCASSYWGQGTLVTVSA VL: DIVMTQSQKFMSTTVGDRVSITCKASQNVGTAVAWYQQKPGQSPKLLIYSASNRYTGVPDRFTGSGSGTDFTLTISNMQSEDLADYFCQQYSSYPYTFGGGTKLEIK too. 298

Please give the result for TM-12 (antibody, V domains shown) VH: EVQLQQSGAELMRPGASVKLSCTASGFNIQDYYMYWVKQRPEQGLEWIGRIDPEDGDAEYAPKFQGKATMTADTSSNTAYLQLSSLTSEDTAVYYCSTRVIYDGYYRTMDCWGQGTSVTVSS VL: DVLMTQIPLSLPVSLGDQASISCRSSQTIVHSNGNTYLEWYLKKPGQSPKLLIDKISNRFSGVPDRFSGSGSGTDFTLKISRVEAEDLGVYYCFQGSHVPYTFGGGTKLEIK too. 1940
